Below, each entry is listed with its recorded EC50.
biological target: rhIL-6-His (recombinant human IL-6, Val30 to Met212, C-terminal 6 His) (human, UniProt P05231 30-212); experiment: ELISA, rhIL-6-His coated at 1 µg/ml, anti-human IgG-HRP
Sequence (P05231 other isoform, or with tags, fused parts or gaps limits assumed): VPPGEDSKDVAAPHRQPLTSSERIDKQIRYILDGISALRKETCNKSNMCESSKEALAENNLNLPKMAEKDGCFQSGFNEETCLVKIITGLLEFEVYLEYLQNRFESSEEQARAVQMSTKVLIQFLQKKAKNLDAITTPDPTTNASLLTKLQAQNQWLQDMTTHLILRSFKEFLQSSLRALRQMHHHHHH
Expressed in µg/mL, but write only the number.

What does the data say about its EC50? Entry: HZ-0408d (antibody, human IgG1, kappa, V domains shown, Humanized from murine 140-4; IgG1 type antibody from 293F cells; also called L3/H3) VH: QVTLKESGPVLVKPTETLTLTCTVSGFSLSTSGMGVGWIRQPPGKALEWLAHIWWDDDKRYNSALKSRLTISKDTSKSQVVLTMTNMDPVDTATYYCARIGGLYVDYLMDYWGQGTLVTVSS VL: DIQMTQSPSSLSASVGDRVTITCRASQSISDYLHWYQQKPGKAPKLLIYYASQSISGVPSRFSGSGSGTDFTLTISSLQPEDFATYYCQNGHSFPWTFGQGTKVEIKR 0.39

Now this one: Siltuximab (antibody, V domains shown) VH: EVQLVESGGKLLKPGGSLKLSCAASGFTFSSFAMSWFRQSPEKRLEWVAEISSGGSYTYYPDTVTGRFTISRDNAKNTLYLEMSSLRSEDTAMYYCARGLWGYYALDYWGQGTSVTVSS VL: QIVLIQSPAIMSASPGEKVTMTCSASSSVSYMYWYQQKPGSSPRLLIYDTSNLASGVPVRFSGSGSGTSYSLTISRMEAEDAATYYCQQWSGYPYTFGGGTKLEIK 67.3

Now this one: HZ-0408c (antibody, human IgG1, kappa, V domains shown, Humanized from murine 140-4; IgG1 type antibody from 293F cells; also called L2/H3) VH: QVTLKESGPVLVKPTETLTLTCTVSGFSLSTSGMGVGWIRQPPGKALEWLAHIWWDDDKRYNSALKSRLTISKDTSKSQVVLTMTNMDPVDTATYYCARIGGLYVDYLMDYWGQGTLVTVSS VL: EIVLTQSPATLSLSPGERATLSCRASQSISDYLHWYQQKPGQAPRLLIYYASQSISGIPARFSGSGSGTDFTLTISSLEPEDFAVYYCQNGHSFPWTFGQGTKVEIKR 0.18

Now this one: HZ-0408a (antibody, human IgG1, kappa, V domains shown, Humanized from murine 140-4; expressed in 293F cells and captured on Protein A as an IgG1 type antibody; also called L1/H2) VH: QVTLKESGPALVKPTQTLTLTCTFSGFSLSTSGMGVGWIRQPPGKALEWLAHIWWDDDKRYNSALKSRLTISKDTSKNQVVLTMTNMDPVDTATYYCARIGGLYVDYLMDYWGQGTLVTVSS VL: EIVLTQSPDFQSVTPKEKVTITCRASQSISDYLHWYQQKPDQSPKLLIKYASQSISGVPSRFSGSGSGTDFTLTINSLEAEDAATYYCQNGHSFPWTFGQGTKVEIKR 0.16
